target: Glutamate carboxypeptidase 2 (Rattus norvegicus, UniProt P70627)
Sequence (P70627 whole entry): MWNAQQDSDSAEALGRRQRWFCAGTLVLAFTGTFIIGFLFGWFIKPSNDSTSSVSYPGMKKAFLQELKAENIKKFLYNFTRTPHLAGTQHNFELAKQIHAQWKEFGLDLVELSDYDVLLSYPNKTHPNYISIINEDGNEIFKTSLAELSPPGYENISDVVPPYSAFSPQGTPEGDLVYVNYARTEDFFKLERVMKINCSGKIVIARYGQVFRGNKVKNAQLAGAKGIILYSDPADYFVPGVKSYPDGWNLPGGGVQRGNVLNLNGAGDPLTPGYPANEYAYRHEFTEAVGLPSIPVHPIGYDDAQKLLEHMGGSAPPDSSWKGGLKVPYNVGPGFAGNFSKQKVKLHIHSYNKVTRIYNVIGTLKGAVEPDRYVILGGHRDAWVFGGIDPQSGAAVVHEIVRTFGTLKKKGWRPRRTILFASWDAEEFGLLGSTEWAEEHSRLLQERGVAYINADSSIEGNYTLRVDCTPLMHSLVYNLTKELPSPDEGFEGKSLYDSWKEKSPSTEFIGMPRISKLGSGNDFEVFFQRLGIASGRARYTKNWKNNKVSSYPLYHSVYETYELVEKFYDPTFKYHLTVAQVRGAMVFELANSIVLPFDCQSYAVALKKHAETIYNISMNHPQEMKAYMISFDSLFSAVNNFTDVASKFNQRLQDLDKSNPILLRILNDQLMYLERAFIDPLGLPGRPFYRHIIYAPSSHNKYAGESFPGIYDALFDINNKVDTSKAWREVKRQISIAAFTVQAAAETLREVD
Observable: log10 IC50 (log10 of the value in nM)

{"Compound": "O=C(O)CCC(CP(=O)(O)c1ccccc1)C(=O)O (configuration not stated)", "log10 IC50": 3.47}
{"Compound": "O=C(O)CCC(CP(=O)(O)Cc1c(F)c(F)c(F)c(F)c1F)C(=O)O (configuration not stated)", "log10 IC50": 1.91}
{"Compound": "N#CCCC(CP(=O)(O)O)C(=O)O (configuration not stated)", "log10 IC50": 2.53}
{"Compound": "O=C(O)C(CCC1N=NN=N1)CP(=O)(O)O (configuration not stated)", "log10 IC50": 2.24}
{"Compound": "O=C(O)C(Cc1cccc(O)c1)CP(=O)(O)O (configuration not stated)", "log10 IC50": 2.71}
{"Compound": "CC(CP(=O)(O)CC(CCC(=O)O)C(=O)O)C(=O)O (configuration not stated)", "log10 IC50": 0.18}
{"Compound": "COc1ccc(NCP(=O)(O)CC(CCC(=O)O)C(=O)O)cc1 (configuration not stated)", "log10 IC50": 0.48}
{"Compound": "O=C(O)C(Cc1ccccc1)CP(=O)(O)O (configuration not stated)", "log10 IC50": 2.74}
{"Compound": "O=C(O)CCC(CP(=O)(O)CNCc1ccccc1)C(=O)O (configuration not stated)", "log10 IC50": 1.77}
{"Compound": "O=C(O)CCC(CP(=O)(O)CC(Cc1ccccc1)C(=O)O)C(=O)O (configuration not stated)", "log10 IC50": 0.30}
{"Compound": "O=C(O)CCC(CP(=O)(O)Cc1ccccc1F)C(=O)O (configuration not stated)", "log10 IC50": 2.19}
{"Compound": "O=C(O)CCC(CP(=O)(O)Cc1ccccc1)C(=O)O (configuration not stated)", "log10 IC50": 1.72}

The measurements presented in this section are drawn from ChEMBL document CHEMBL1134287.
